- tested_target: Human TrkA ECD (residues 36-382) with C-terminal BAP tag and 6xHis tag (human, UniProt P04629 36-382)
- Sequence (P04629 other isoform, or with tags, fused parts or gaps limits assumed): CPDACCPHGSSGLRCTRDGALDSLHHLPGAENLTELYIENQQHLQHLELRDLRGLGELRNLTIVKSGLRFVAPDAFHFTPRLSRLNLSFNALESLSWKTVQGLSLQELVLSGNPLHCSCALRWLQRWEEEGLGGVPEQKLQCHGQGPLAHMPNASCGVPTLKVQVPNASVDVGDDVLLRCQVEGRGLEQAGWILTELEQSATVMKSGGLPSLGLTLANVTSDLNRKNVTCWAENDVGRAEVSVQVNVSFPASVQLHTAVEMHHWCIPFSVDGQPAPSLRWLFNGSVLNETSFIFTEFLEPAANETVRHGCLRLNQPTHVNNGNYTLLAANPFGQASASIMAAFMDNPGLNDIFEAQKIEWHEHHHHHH
- assay_remarks: biolayer interferometry
readout_label: Kd

Entry TrkA_mb (optimized TrkA binder, purified from E. coli) (designed binder) MSHHHHHHHHSENLYFQSGGGRDEIKERIFKAVVRAIVTGNPEQLKEAKKLLEKLKKLGRLDQDAKKFEKAIRQVEKRLRS has what Kd?
≤ 1 nM
